Just for reference, patent US5981539A is where these values come from.

target-or-test-system: N-type calcium channels (chick cortical synaptosomes) (Gallus gallus, UniProt A0A8V1AJW5)
Sequence (A0A8V1AJW5 1-2349): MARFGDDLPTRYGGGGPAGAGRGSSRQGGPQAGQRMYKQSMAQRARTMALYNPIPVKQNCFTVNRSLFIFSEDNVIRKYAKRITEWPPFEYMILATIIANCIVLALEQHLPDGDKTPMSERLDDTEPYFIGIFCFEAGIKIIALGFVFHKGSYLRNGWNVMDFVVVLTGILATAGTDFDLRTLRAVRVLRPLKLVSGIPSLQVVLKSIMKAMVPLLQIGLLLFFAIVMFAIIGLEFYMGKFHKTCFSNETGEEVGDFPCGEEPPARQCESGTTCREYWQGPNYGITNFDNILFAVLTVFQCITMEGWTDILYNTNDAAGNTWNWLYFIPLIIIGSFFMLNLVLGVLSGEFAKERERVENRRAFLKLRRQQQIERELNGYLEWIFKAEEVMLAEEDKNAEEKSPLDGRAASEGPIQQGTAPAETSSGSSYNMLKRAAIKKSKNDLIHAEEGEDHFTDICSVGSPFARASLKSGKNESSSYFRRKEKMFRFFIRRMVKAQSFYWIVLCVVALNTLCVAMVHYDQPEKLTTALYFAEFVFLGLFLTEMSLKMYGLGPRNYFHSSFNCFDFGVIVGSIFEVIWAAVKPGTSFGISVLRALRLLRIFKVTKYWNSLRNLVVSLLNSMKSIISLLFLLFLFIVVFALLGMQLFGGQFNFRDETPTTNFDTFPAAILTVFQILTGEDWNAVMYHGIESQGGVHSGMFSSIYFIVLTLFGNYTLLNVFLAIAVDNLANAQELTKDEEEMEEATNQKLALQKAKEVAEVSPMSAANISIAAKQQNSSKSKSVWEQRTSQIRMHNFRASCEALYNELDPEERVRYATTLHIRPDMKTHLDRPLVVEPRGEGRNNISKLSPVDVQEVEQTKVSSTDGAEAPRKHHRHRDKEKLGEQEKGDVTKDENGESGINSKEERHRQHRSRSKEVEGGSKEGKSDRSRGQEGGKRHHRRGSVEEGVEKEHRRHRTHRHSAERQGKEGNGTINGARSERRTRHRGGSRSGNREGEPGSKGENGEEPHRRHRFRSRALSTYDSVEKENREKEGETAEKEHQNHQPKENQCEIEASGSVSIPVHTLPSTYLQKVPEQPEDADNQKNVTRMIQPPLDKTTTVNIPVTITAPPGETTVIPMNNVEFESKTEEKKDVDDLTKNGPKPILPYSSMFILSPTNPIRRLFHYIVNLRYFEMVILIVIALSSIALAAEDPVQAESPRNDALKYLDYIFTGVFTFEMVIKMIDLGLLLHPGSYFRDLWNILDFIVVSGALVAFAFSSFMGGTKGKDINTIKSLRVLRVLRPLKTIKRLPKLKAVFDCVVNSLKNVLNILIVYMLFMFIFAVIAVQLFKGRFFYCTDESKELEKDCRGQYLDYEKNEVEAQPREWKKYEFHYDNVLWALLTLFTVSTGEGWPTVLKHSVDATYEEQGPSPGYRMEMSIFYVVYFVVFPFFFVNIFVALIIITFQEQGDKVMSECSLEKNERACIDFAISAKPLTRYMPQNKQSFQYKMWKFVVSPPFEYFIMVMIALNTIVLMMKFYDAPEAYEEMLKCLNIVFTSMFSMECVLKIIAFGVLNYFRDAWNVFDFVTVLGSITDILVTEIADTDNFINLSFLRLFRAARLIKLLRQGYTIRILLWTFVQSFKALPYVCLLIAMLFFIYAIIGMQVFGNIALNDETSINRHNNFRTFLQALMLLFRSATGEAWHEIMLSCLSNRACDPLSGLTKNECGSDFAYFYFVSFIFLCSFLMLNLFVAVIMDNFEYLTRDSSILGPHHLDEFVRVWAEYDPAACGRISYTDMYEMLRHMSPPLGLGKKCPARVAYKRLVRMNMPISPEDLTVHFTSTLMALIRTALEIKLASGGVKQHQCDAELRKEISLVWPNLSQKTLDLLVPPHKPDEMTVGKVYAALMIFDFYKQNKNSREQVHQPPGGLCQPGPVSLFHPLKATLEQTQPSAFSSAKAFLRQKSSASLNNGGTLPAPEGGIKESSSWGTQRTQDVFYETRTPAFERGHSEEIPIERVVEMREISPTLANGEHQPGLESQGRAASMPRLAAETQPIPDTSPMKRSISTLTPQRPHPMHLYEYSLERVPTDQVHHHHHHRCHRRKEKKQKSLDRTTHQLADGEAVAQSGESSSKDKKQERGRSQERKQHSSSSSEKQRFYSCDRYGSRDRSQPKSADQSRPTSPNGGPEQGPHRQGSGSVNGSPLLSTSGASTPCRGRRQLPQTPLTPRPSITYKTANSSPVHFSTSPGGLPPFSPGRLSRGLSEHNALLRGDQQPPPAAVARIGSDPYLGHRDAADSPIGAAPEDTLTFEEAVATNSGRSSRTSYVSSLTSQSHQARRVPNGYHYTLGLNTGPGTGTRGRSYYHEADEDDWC
assay-details: 45Ca-uptake/influx into chick cortical synaptosomes (K+ depolarization, 30 mM K+)
cond: 30 mM K+ minus 4 mM K+, 10 sec influx, 37° C., pH 7.4, read-out: IC50 (concentration of test substance which inhibits the specific uptake of 45Ca by 50%)
measured-quantity: pIC50
Numbers only, as −log10 of the molar value.

Reference set, count: 3
CCCCCN1CC[C@@H](CCN(c2ccccc2)c2ccccc2)[C@H](OC)C1 (racemic) :: 5.89
CCCCCN1CC[C@@H](CCOc2ccccc2Cc2ccccc2)[C@H](OC)C1 (racemic) :: 6.22
CCCCCN1CC[C@H](CCOc2ccc(Cl)c(Cl)c2)[C@@H](OCCOC)C1 (relative stereo) :: 6.40

Required: pIC50, one value per molecule below.
1. CCCCCN1CC[C@@H](CCOc2ccc(Cl)c(Cl)c2)[C@H](OC(C)=O)C1 (racemic)
2. CCCCCN1CC[C@H](CCOc2ccccc2Cc2ccccc2)[C@H](OC)C1 (racemic)

1. 6.30
2. 6.05

Consider the following items and state reported pIC50 for each.
1. CCCCCN1CC[C@H](CCOc2cccc(C)c2C)[C@H](OC)C1 (racemic)
2. CCCCCN1CC[C@@H](CCOc2cccc(OC(C)C)c2)[C@H](OCCOC)C1 (racemic)
3. CCCCCN1CC[C@H](CCOc2ccccc2-c2ccccc2)[C@H](OC)C1 (racemic)
4. CCCCCN1CC[C@@H](CCN(c2ccccc2)c2ccccc2)[C@H](OCCOC)C1 (racemic)
5. CCCCCN1CC[C@H](CCN(c2ccccc2)c2ccccc2)[C@H](OC)C1 (racemic)

1. 6.05
2. 5.96
3. 6.00
4. 6.30
5. 5.96

Look up pIC50 for the entries below, preserving their order.
1. CCCCCN1CC[C@@H](CCOc2ccc(Cl)c(Cl)c2)[C@@H](OCCOC)C1 (relative stereo)
2. CCCCCN1CC[C@@H](SCc2ccc(Cl)cc2)[C@H](OCCOC)C1 (racemic)
3. CCCCCN1CC[C@@H](CCOc2ccc(Cl)c(Cl)c2)[C@H](OC)C1 (racemic)
4. CCCCCN1CC[C@@H](Oc2ccc(Oc3ccccc3)cc2)[C@H](OCCOC)C1 (racemic)
5. CCCCCN1CC[C@@H](Oc2ccccc2OCc2ccccc2)[C@H](OCCOC)C1 (racemic)

[6.52, 6.00, 6.15, 6.21, 6.05]
